Please go through the items and note down their GI50.
Tested on: T-Rex 293 cell line SC3 cells lacking increased expression of androgen receptor protein
Experimental details: Cellular growth inhibition, T-Rex 293 SC3 cells without doxycycline, CellTiter-Glo
Assay type: cell-based
Conditions used: 72 h, T-Rex 293 SC3 cells not exposed to doxycycline, CellTiter-Glo 2.0

Example entries begin here.
>  <Smiles structure>
Cc1sc2c(c1C)C(c1ccc([C@H]3C[C@H]([C@H]4CCN(c5ncc(C(=O)N[C@H]6C(C)(C)[C@H](Oc7ccc(C#N)c(Cl)c7)C6(C)C)cn5)C4)C3)cc1)=N[C@@H](Cc1ncco1)c1nnc(C)n1-2

>  <Assay endpoint>
GI50

>  <Value>
> 3000 nM

$$$$
>  <Smiles structure>
Cc1sc2c(c1C)C(c1ccc(N3CC4(CCC(Cc5ncc(C(=O)N[C@H]6C(C)(C)[C@H](Oc7ccc(C#N)c(Cl)c7)C6(C)C)cn5)CC4)C3)cc1)=N[C@@H](Cc1ncco1)c1nnc(C)n1-2

>  <Assay endpoint>
GI50

>  <Value>
< 500 nM

$$$$
>  <Smiles structure>
Cc1sc2c(c1C)C(c1ccc(C#C[C@H]3C[C@]4(CCCN(c5ncc(C(=O)N[C@H]6C(C)(C)[C@H](Oc7ccc(C#N)c(Cl)c7)C6(C)C)cn5)C4)C3)cc1)=N[C@@H](Cc1ncco1)c1nnc(C)n1-2

>  <Assay endpoint>
GI50

>  <Value>
> 3000 nM

$$$$

Which GI50 is listed for "Cc1sc2c(c1C)C(c1ccc([C@H]3C[C@@H](C[C@@H]4CCCN(c5ncc(C(=O)N[C@H]6C(C)(C)[C@H](Oc7ccc(C#N)c(Cl)c7)C6(C)C)cn5)C4)C3)cc1)=N[C@@H](Cc1ncco1)c1nnc(C)n1-2" ?
> 3000 nM
